In this section we review reported pIC50 values for a set of compounds.
# Experimental system: human SPPL2a (Homo sapiens)
# Sequence (Q8TCT8 26-520): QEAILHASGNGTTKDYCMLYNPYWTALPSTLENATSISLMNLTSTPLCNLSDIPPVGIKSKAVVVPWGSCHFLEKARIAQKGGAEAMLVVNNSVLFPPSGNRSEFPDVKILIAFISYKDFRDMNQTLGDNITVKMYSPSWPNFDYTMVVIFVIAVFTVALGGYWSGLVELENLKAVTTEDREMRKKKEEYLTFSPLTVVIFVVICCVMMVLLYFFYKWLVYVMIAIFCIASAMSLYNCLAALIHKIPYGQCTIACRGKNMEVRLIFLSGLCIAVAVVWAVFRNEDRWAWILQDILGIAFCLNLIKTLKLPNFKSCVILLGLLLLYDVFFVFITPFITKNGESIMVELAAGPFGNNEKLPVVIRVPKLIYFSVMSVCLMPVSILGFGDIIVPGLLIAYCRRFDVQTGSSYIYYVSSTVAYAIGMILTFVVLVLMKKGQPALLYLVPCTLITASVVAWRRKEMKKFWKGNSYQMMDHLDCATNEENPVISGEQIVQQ
# Test details: Sppl2a RGA (reporter gene assay) in HEK293 cells
# Format: cell-based
# Design: expressed in transfected cells; host or cells: HEK293 (transient)
# Measurement parameters: NT-TNF-VP16-Gal4 substrate, Gal4-luciferase reporter, 24 h
pIC50 (log units): -log10 of the concentration in mol/L.

>>> val("CC[C@H](CNC(=O)c1sc(C(=O)NC(C)C)nc1C)C(=O)N[C@@H]1C(=O)N2CCCN2Cc2ccccc21 [Example 19]")
8.22

// pIC50 lookup, compound = O=C(C[C@H](C(=O)N[C@@H]1C(=O)N2CCCN2C(=O)c2ccccc21)C1CC1)Nc1sc(-c2cnn(C(F)F)c2)nc1Cl [Example 104] , result: 7.77

// pIC50 lookup, compound = CC[C@H](CNC(=O)c1sc(C2=CCOCC2)nc1Cl)C(=O)N[C@@H]1C(=O)N2CCCN2Cc2ccccc21 [Example 46] , result: 7.27

// pIC50 lookup, compound = Cc1nc(C(=O)NC(C)C)sc1NC(=O)C[C@@H](C)C(=O)N[C@@H]1C(=O)N2CCCN2Cc2ccccc21 [Example 66] , result: 8.70

// pIC50 lookup, compound = O=C(NC[C@H](C(=O)N[C@@H]1C(=O)N2CCCN2Cc2c(F)cccc21)C1CC1)c1sc(C2CC2)nc1Cl [Example 54] , result: 7.32

// pIC50 lookup, compound = CC(C)NC(=O)c1nc(Cl)c(C(=O)NC[C@@H](C)C(=O)N[C@@H]2C(=O)N3CCCN3Cc3ccccc32)s1 [Example 22] , result: 7.92

// pIC50 lookup, compound = CC[C@H](CNC(=O)c1scnc1C(F)(F)F)C(=O)N[C@@H]1C(=O)N2CC3(CC3)CN2C(=O)c2ccccc21 [Example 57] , result: 6.83

// pIC50 lookup, compound = O=C(C[C@H](C(=O)N[C@@H]1C(=O)N2CCCN2C(=O)c2ccccc21)C1CC1)Nc1sc(-c2ccc(C(F)(F)F)nc2)nc1Cl [Example 107] , result: 7.96

// pIC50 lookup, compound = CCc1nnsc1C(=O)NC[C@@H](CC)C(=O)N[C@@H]1C(=O)N2CC3(CC3)CN2C(=O)c2ccccc21 [Example 36] , result: 7.47

// pIC50 lookup, compound = CCNC(=O)c1nc(C)c(C(=O)NC[C@H](C(=O)N[C@@H]2C(=O)N3CCCN3Cc3ccccc32)C(F)(F)F)s1 [Example 7] , result: 8.70

// pIC50 lookup, compound = CC[C@H](CNC(=O)c1sc(-c2ccc(OC(F)F)nc2)nc1Cl)C(=O)N[C@@H]1C(=O)N2CCCN2C(=O)c2ccccc21 [Example 37] , result: 7.49

// pIC50 lookup, compound = CC[C@H](CNC(=O)c1sc(C2=CCOCC2)nc1C)C(=O)N[C@@H]1C(=O)N2CCCN2Cc2ccccc21 [Example 26] , result: 7.00

// pIC50 lookup, compound = Cc1cncc(-c2cc(NC(=O)C[C@H](C(=O)N[C@@H]3C(=O)N4CCCN4Cc4ccccc43)C3CC3)n(C)n2)c1 [Example 75] , result: 8.40

// pIC50 lookup, compound = Cc1c(F)ccc2nc(C[C@@H](C)C(=O)N[C@@H]3C(=O)N4CCCN4Cc4ccccc43)[nH]c12 [Example 116] , result: 7.89

// pIC50 lookup, compound = CC(C)NC(=O)c1cc(NC(=O)C[C@H](C(=O)N[C@@H]2C(=O)N3CCCN3Cc3c(F)cccc32)C2CC2)n(C)n1 [Example 77] , result: 8.30
